- Target Of Assay: Delta-type opioid receptor (Homo sapiens); note: assay procedure not described here
- Sequence (P41143 whole entry): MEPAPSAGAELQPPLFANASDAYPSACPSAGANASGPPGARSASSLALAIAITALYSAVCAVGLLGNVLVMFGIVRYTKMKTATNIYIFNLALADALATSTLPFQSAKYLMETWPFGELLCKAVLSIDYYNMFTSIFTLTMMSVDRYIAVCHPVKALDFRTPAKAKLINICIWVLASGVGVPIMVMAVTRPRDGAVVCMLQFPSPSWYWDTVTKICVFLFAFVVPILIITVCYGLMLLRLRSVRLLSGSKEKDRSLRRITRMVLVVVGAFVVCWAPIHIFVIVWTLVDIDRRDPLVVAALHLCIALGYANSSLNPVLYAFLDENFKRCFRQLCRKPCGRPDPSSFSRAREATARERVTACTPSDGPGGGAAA
Recorded measurements of AC50, one per entry

>>> meas_value("NS(=O)(=O)c1cc(-c2nnn[nH]2)c(NCc2cccs2)cc1Cl [AZOSEMIDE]")
"> 30 µM"
>>> meas_value("CN1CC[C@]23CCCC[C@H]2[C@H]1Cc1ccc(O)cc13 [LEVORPHANOL]")
"> 30 µM"
>>> meas_value("Cc1cc2c(OCC(CNC(C)(C)C)OC(=O)c3ccccc3)cccc2[nH]1 (configuration not stated) [BOPINDOLOL]")
"> 30 µM"

Form field: reported AC50 of Nc1ccc(/N=N/c2ccccc2)c(N)n1 [PHENAZOPYRIDINE] 2.9 µM

Form field: reported AC50 of COC(=O)C1=C(C)NC(C)=C(C(=O)OC(C)C)C1c1cccc2nonc12 (configuration not stated) [ISRADIPINE] 11 µM

Form field: reported AC50 of CS(=O)(=O)Nc1cc2occ(NC=O)c(=O)c2cc1Oc1ccccc1 [IGURATIMOD] > 30 µM

Form field: reported AC50 of CC(=O)c1ccc2c(c1)N(CCCN1CCN(CCO)CC1)c1ccccc1S2 [ACETOPHENAZINE] > 30 µM

Form field: reported AC50 of CCOC(=O)[C@H](CCc1ccccc1)N[C@@H](C)C(=O)N1CCC[C@H]1C(=O)O > 10 µM

Form field: reported AC50 of O=C(C[S+]([O-])C(c1ccccc1)c1ccccc1)NO (configuration not stated) > 30 µM

Form field: reported AC50 of O=C1NCCN1CCN1CCC(c2cn(-c3ccc(F)cc3)c3ccc(Cl)cc23)CC1 [SERTINDOLE] > 30 µM

Form field: reported AC50 of CC(C)c1c(C(=O)Nc2ccccc2)c(-c2ccccc2)c(-c2ccc(F)cc2)n1CC[C@@H](O)C[C@@H](O)CC(=O)O [ATORVASTATIN] > 30 µM

Form field: reported AC50 of COc1ccc2c(c1)C(=O)N(CCc1ccc(S(=O)(=O)NC(=O)NC3CCCCC3)cc1)C(=O)C2(C)C [GLIQUIDONE] > 30 µM

* * *

Here we list compounds with their recorded AC50 when tested on Androgen receptor (Rattus norvegicus, UniProt P15207). Note: assay procedure not described here.
Sequence (P15207 whole entry S389L): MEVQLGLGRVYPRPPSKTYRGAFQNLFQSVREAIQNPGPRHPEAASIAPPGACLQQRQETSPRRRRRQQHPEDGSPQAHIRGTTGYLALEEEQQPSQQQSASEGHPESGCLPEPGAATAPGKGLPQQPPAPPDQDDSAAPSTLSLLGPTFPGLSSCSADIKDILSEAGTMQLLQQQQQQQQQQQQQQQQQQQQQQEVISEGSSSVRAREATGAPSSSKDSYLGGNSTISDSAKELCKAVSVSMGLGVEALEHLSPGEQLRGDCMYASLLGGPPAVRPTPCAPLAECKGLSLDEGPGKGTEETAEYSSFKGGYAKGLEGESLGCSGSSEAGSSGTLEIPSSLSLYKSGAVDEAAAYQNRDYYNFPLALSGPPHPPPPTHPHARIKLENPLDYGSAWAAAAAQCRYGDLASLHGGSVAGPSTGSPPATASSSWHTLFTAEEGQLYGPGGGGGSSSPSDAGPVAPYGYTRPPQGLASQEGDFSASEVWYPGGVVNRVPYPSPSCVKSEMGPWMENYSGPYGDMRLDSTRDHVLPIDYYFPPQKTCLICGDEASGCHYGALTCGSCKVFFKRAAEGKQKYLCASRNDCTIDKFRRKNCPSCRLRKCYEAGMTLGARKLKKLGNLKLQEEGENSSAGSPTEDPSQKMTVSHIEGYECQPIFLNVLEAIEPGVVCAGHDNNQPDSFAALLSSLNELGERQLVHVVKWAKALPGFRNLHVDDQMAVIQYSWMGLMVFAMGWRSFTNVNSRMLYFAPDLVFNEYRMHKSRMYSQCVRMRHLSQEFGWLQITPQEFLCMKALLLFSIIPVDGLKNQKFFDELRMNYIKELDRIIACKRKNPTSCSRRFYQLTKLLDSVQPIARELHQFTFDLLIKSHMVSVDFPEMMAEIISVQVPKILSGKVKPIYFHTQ

Example entries and their recorded answers appear below.
>>> meas_value("CN1CCC2=C(C1)C(c1ccccc1)c1ccccc12 (stereo not drawn)")
"> 30 µM"
>>> meas_value("C[N+](C)(C)CCOC(N)=O")
"> 10 µM"
>>> meas_value("C[C@@H]1O[C@@H]1P(=O)(O)O")
"> 30 µM"
>>> meas_value("Cc1c(C(=O)Nc2ccc(N3C[C@@H](C)O[C@@H](C)C3)nc2)cccc1-c1ccc(OC(F)(F)F)cc1")
"> 30 µM"
>>> meas_value("CN[C@@H]1[C@H](O)[C@H](NC)[C@H]2O[C@@]3(O)C(=O)C[C@@H](C)O[C@H]3O[C@@H]2[C@H]1O")
"> 10 µM"

Fill in the recorded AC50 for this compound, with Androgen receptor (Rattus norvegicus, UniProt P15207) as test system: CCCCCN(C)CCC(O)(P(=O)(O)O)P(=O)(O)O > 30 µM

Fill in the recorded AC50 for this compound, with Androgen receptor (Rattus norvegicus, UniProt P15207) as test system: C#CCN[C@@H]1CCc2ccccc21 > 30 µM

Fill in the recorded AC50 for this compound, with Androgen receptor (Rattus norvegicus, UniProt P15207) as test system: C[C@H]1C[C@@H]2[C@H]([C@@H](O)C[C@@]3(C)[C@H]2CC[C@]3(O)C(=O)CO)[C@@]2(C)C=CC(=O)C=C12 > 30 µM

Fill in the recorded AC50 for this compound, with Androgen receptor (Rattus norvegicus, UniProt P15207) as test system: CC(=O)N[C@H]1[C@H]([C@H](O)[C@H](O)CO)OC(C(=O)O)=C[C@@H]1N=C(N)N > 30 µM

Fill in the recorded AC50 for this compound, with Androgen receptor (Rattus norvegicus, UniProt P15207) as test system: C#CC1(OC(N)=O)CCCCC1 [ETHINAMATE] > 10 µM

Fill in the recorded AC50 for this compound, with Androgen receptor (Rattus norvegicus, UniProt P15207) as test system: CC1=CC(=O)c2ccccc2C1=O > 30 µM
